assay: Half life in ICR mouse at 10 mg/kg, iv by LC-MS/MS analysis; type: ADME, organism-based; settings: in vivo
EXPERIMENTAL_ENDPOINT: half-life (h)

INSERT INTO assay_data (structure_smiles, experimental_endpoint, reported_measurement) VALUES
  ('C=C[C@]1(C)C[C@@H](OC(=O)CSc2ccccc2NC(=O)CN2CCOCC2)[C@]2(C)[C@H](C)CC[C@]3(CCC(=O)[C@H]32)[C@@H](C)[C@@H]1O', 'half-life', 6.88);

* * *

test system: Staphylococcus aureus; assay: Antibacterial activity against Staphylococcus aureus ATCC 29213 assessed as bacterial growth inhibition incubated for 24 hrs by broth dilution method; type: functional; settings: ATCC 29213, 24 h
log10(MIC): recorded values
EXPERIMENTAL_ENDPOINT: log10(MIC) (log10 of the value in µg/mL)

INSERT INTO results (structure_smiles, reported_measurement) VALUES
  ('C=C[C@]1(C)C[C@@H](OC(=O)CSCCN(CC)CC)[C@]2(C)[C@H](C)CC[C@]3(CCC(=O)[C@H]32)[C@@H](C)[C@@H]1O', 0.00),
  ('C=C[C@]1(C)C[C@@H](OC(=O)CSc2ccccc2NC(=O)CN2CCN(c3ccccc3C)CC2)[C@]2(C)[C@H](C)CC[C@]3(CCC(=O)[C@H]32)[C@@H](C)[C@@H]1O', 0.60),
  ('C=C[C@]1(C)C[C@@H](OC(=O)CSc2ccccc2NC(=O)CN2CCN(c3cccc(O)c3)CC2)[C@]2(C)[C@H](C)CC[C@]3(CCC(=O)[C@H]32)[C@@H](C)[C@@H]1O', -0.60),
  ('C=C[C@]1(C)C[C@@H](OC(=O)CSc2ccccc2NC(=O)CN2CCOCC2)[C@]2(C)[C@H](C)CC[C@]3(CCC(=O)[C@H]32)[C@@H](C)[C@@H]1O', -1.22),
  ('C=C[C@]1(C)C[C@@H](OC(=O)CSc2ccccc2NC(=O)CN2CCN(c3ccccc3O)CC2)[C@]2(C)[C@H](C)CC[C@]3(CCC(=O)[C@H]32)[C@@H](C)[C@@H]1O', 0.30),
  ('C=C[C@]1(C)C[C@@H](OC(=O)CSc2ccccc2NC(=O)CN2CCCC2)[C@]2(C)[C@H](C)CC[C@]3(CCC(=O)[C@H]32)[C@@H](C)[C@@H]1O', -0.90),
  ('C=C[C@]1(C)C[C@@H](OC(=O)CSc2ccccc2NC(=O)CN2CCN(c3ccccc3)CC2)[C@]2(C)[C@H](C)CC[C@]3(CCC(=O)[C@H]32)[C@@H](C)[C@@H]1O', -0.60),
  ('C=C[C@]1(C)C[C@@H](OC(=O)CSc2ccccc2NC(=O)CN2CCN(c3ccc([N+](=O)[O-])cc3)CC2)[C@]2(C)[C@H](C)CC[C@]3(CCC(=O)[C@H]32)[C@@H](C)[C@@H]1O', 0.60);

* * *

experiment: Clearance in ICR mouse at 10 mg/kg, iv by LC-MS/MS analysis; assay type: ADME, organism-based; details: in vivo
EXPERIMENTAL_ENDPOINT: clearance (mL/min/kg)

INSERT INTO assay_data (structure_smiles, experimental_endpoint, unit_of_measure, reported_measurement) VALUES
  ('C=C[C@]1(C)C[C@@H](OC(=O)CSc2ccccc2NC(=O)CN2CCOCC2)[C@]2(C)[C@H](C)CC[C@]3(CCC(=O)[C@H]32)[C@@H](C)[C@@H]1O', 'clearance', 'mL/min/kg', 361);

* * *

assay: AUC (0 to t) in ICR mouse at 10 mg/kg, iv by LC-MS/MS analysis; assay type: ADME, organism-based; settings: in vivo
EXPERIMENTAL_ENDPOINT: AUC(0-t)

INSERT INTO measurements (structure_smiles, experimental_endpoint, reported_measurement) VALUES
  ('C=C[C@]1(C)C[C@@H](OC(=O)CSc2ccccc2NC(=O)CN2CCOCC2)[C@]2(C)[C@H](C)CC[C@]3(CCC(=O)[C@H]32)[C@@H](C)[C@@H]1O', 'AUC(0-t)', '470 ng·h/mL');

* * *

test: AUC (0 to infinity) in ICR mouse at 10 mg/kg, iv by LC-MS/MS analysis; type: ADME, organism-based; design: dose 10 mg/kg, route intravenous, time infinity; conditions: in vivo
EXPERIMENTAL_ENDPOINT: AUC(0-inf) (ng·h/mL)

INSERT INTO assay_data (structure_smiles, experimental_endpoint, reported_measurement) VALUES
  ('C=C[C@]1(C)C[C@@H](OC(=O)CSc2ccccc2NC(=O)CN2CCOCC2)[C@]2(C)[C@H](C)CC[C@]3(CCC(=O)[C@H]32)[C@@H](C)[C@@H]1O', 'AUC(0-inf)', 480);

* * *

assay: Cmax in ICR mouse at 10 mg/kg, iv by LC-MS/MS analysis; type: ADME, organism-based; set-up: dose 10 mg/kg, route intravenous; settings: in vivo
EXPERIMENTAL_ENDPOINT: Cmax (ng/mL)

INSERT INTO assay_data (structure_smiles, experimental_endpoint, reported_measurement) VALUES
  ('C=C[C@]1(C)C[C@@H](OC(=O)CSc2ccccc2NC(=O)CN2CCOCC2)[C@]2(C)[C@H](C)CC[C@]3(CCC(=O)[C@H]32)[C@@H](C)[C@@H]1O', 'Cmax', 1760);

* * *

assay: MRT in ICR mouse at 10 mg/kg, iv by LC-MS/MS analysis; assay type: ADME, organism-based; settings: in vivo
EXPERIMENTAL_ENDPOINT: MRT (min)

INSERT INTO assay_data (structure_smiles, experimental_endpoint, reported_measurement) VALUES
  ('C=C[C@]1(C)C[C@@H](OC(=O)CSc2ccccc2NC(=O)CN2CCOCC2)[C@]2(C)[C@H](C)CC[C@]3(CCC(=O)[C@H]32)[C@@H](C)[C@@H]1O', 'MRT', 36.6);

* * *

test: Tmax in ICR mouse at 10 mg/kg, iv by LC-MS/MS analysis; format: ADME, organism-based; conditions: in vivo
EXPERIMENTAL_ENDPOINT: Tmax (min)

INSERT INTO results (structure_smiles, reported_measurement) VALUES
  ('C=C[C@]1(C)C[C@@H](OC(=O)CSc2ccccc2NC(=O)CN2CCOCC2)[C@]2(C)[C@H](C)CC[C@]3(CCC(=O)[C@H]32)[C@@H](C)[C@@H]1O', 4.98);

* * *

test system: Staphylococcus aureus; test: Antibacterial activity against Staphylococcus aureus ATCC 29213 assessed as bacterial growth inhibition incubated for 24 hrs by broth dilution method; type: functional; conditions: ATCC 29213, 24 h
EXPERIMENTAL_ENDPOINT: MIC (µg/mL)

INSERT INTO assay_data (compound, experimental_endpoint, result_qualifier, reported_measurement) VALUES
  ('C=C[C@]1(C)C[C@@H](OC(=O)CSc2ccccc2NC(=O)CN2CCN(c3cccc(OC)c3)CC2)[C@]2(C)[C@H](C)CC[C@]3(CCC(=O)[C@H]32)[C@@H](C)[C@@H]1O', 'MIC', '>', 8),
  ('C=C[C@]1(C)C[C@@H](OC(=O)CSc2ccccc2NC(=O)CN2CCN(c3cccc(C)c3)CC2)[C@]2(C)[C@H](C)CC[C@]3(CCC(=O)[C@H]32)[C@@H](C)[C@@H]1O', 'MIC', '>', 8),
  ('C=C[C@]1(C)C[C@@H](OC(=O)CSc2ccccc2NC(=O)CN2CCN(c3ccccc3F)CC2)[C@]2(C)[C@H](C)CC[C@]3(CCC(=O)[C@H]32)[C@@H](C)[C@@H]1O', 'MIC', '=', 8),
  ('C=C[C@]1(C)C[C@@H](OC(=O)CSc2ccccc2NC(=O)CN2CCN(c3ccc(O)cc3)CC2)[C@]2(C)[C@H](C)CC[C@]3(CCC(=O)[C@H]32)[C@@H](C)[C@@H]1O', 'MIC', '=', 1),
  ('C=C[C@]1(C)C[C@@H](OC(=O)CSc2ccccc2NC(=O)CN2CCN(C)CC2)[C@]2(C)[C@H](C)CC[C@]3(CCC(=O)[C@H]32)[C@@H](C)[C@@H]1O', 'MIC', '=', 0.5),
  ('C=C[C@]1(C)C[C@@H](OC(=O)CSc2ccccc2NC(=O)CN(CC)CC)[C@]2(C)[C@H](C)CC[C@]3(CCC(=O)[C@H]32)[C@@H](C)[C@@H]1O', 'MIC', '=', 0.125),
  ('C=C[C@]1(C)C[C@@H](OC(=O)CSc2ccccc2NC(=O)CN2CCN(c3ccccc3[N+](=O)[O-])CC2)[C@]2(C)[C@H](C)CC[C@]3(CCC(=O)[C@H]32)[C@@H](C)[C@@H]1O', 'MIC', '>', 8),
  ('C=C[C@]1(C)C[C@@H](OC(=O)CSc2ccccc2NC(=O)CN2CCN(c3ccc(OC)cc3)CC2)[C@]2(C)[C@H](C)CC[C@]3(CCC(=O)[C@H]32)[C@@H](C)[C@@H]1O', 'MIC', '=', 4),
  ('C=C[C@]1(C)C[C@@H](OC(=O)CSc2ccccc2NC(=O)CN2CCN(c3ccc(C)cc3)CC2)[C@]2(C)[C@H](C)CC[C@]3(CCC(=O)[C@H]32)[C@@H](C)[C@@H]1O', 'MIC', '>', 8),
  ('C=C[C@]1(C)C[C@@H](OC(=O)CSc2ccccc2NC(=O)CN2CCN(c3cccc([N+](=O)[O-])c3)CC2)[C@]2(C)[C@H](C)CC[C@]3(CCC(=O)[C@H]32)[C@@H](C)[C@@H]1O', 'MIC', '=', 4),
  ('C=C[C@]1(C)C[C@@H](OC(=O)CSc2ccccc2NC(=O)CN2CCC(O)C2)[C@]2(C)[C@H](C)CC[C@]3(CCC(=O)[C@H]32)[C@@H](C)[C@@H]1O (stereo partly specified)', 'MIC', '=', 0.25);
